ASSAY_PROTOCOL: Toxicity: cell density of uninfected H9 cultures
Type: cell-based
ASSAY_CONTEXT: human, h9 cells, drug conc. 10 μg/mL; 3 days; read-out: Cell Survival (%)
ASSAY_READOUT: viability at 72 h (%)
Give the number; % is assumed, so skip it.

[ask] Returns the measured viability at 72 h for the input compound. Input: O=C(O)P(O)(O)=S [TPFA, thiophosphonoformic acid]
[reply] 104

----------
TARGET: HSV-1 DNA polymerase (Human herpesvirus 1)
Construct: made in house
Sequence (P04293 whole entry): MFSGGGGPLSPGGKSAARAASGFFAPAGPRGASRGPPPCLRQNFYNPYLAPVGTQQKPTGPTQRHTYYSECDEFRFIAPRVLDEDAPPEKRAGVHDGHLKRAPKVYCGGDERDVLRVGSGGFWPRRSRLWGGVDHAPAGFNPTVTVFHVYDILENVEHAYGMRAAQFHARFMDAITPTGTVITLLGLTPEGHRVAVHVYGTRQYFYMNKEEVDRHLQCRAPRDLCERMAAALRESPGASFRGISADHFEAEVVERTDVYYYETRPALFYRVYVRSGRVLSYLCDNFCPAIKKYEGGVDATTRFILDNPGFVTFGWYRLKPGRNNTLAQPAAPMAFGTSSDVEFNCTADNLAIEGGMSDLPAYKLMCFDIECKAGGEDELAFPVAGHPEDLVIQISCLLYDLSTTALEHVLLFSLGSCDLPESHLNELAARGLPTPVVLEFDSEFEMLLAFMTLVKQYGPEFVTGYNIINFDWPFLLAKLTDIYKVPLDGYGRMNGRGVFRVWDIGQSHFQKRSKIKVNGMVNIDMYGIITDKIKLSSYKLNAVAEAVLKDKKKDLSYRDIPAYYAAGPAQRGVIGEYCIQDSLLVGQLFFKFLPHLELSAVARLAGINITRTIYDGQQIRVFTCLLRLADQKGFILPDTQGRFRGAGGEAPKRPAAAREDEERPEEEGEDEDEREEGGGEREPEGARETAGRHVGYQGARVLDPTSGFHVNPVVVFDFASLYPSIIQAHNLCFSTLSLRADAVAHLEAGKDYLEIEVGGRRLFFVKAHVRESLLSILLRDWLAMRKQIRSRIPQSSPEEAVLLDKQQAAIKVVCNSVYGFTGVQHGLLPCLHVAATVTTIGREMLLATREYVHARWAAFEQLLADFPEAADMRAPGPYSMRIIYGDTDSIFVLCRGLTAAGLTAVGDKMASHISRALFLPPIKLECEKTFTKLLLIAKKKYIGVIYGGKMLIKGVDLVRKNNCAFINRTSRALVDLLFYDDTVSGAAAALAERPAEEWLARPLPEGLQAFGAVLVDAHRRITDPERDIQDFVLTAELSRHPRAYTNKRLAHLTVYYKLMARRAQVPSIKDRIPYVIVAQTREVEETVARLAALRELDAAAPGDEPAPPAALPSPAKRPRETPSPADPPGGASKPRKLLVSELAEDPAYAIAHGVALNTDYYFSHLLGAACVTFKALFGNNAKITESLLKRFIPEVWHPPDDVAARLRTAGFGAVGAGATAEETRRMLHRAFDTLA
ASSAY_PROTOCOL: Viral polymerase inhibition, HSV-1
Type: biochemical
ASSAY_READOUT: IC50 (µM)
Give the number; µM is assumed, so skip it.

[ask] Returns the measured IC50 for the input compound. Input: O=C(O)P(O)(O)=S [TPFA, thiophosphonoformic acid]
[reply] 11.8

----------
TARGET: human DNA polymerase β (Homo sapiens, UniProt P06746)
Construct: Mammalian DNA polymerases alpha, beta, gamma, and delta were partially purified from K562 celles; endogenous in cells; host or cells: K562 (chronic myelogenous leukemia tissue culture line)
ASSAY_PROTOCOL: Human DNA polymerase inhibition, beta
Type: biochemical
From the text: Viral DNA polymerases (HSV-1, HSV-2, EBV) were purified by previously published methods (Derce, D. K. F. Bastow, and Y. C. Cheng (1982) J. Boil. Chem. 257:10251-10260; Ostrander, M., and Y. C. Cheng (1980) Biochim. Biophys. Acta 609:232-245; Tan, R. S., A. Datta. and Y. C. Cheng (1982) J. Virol. 44:893-899). These procedures generally included sequential chromatography on DEAE-cellulose. […]
ASSAY_READOUT: IC50

[ask] Returns the measured IC50 for the input compound. Input: `O=C(O)P(O)(O)=S`
[reply] > 100 µM

----------
TARGET: human DNA polymerase γ (Homo sapiens)
Construct: Mammalian DNA polymerases alpha, beta, gamma, and delta were partially purified from K562 celles; endogenous in cells; host or cells: K562 (chronic myelogenous leukemia tissue culture line)
Sequence (P54098 26-1239 limits assumed): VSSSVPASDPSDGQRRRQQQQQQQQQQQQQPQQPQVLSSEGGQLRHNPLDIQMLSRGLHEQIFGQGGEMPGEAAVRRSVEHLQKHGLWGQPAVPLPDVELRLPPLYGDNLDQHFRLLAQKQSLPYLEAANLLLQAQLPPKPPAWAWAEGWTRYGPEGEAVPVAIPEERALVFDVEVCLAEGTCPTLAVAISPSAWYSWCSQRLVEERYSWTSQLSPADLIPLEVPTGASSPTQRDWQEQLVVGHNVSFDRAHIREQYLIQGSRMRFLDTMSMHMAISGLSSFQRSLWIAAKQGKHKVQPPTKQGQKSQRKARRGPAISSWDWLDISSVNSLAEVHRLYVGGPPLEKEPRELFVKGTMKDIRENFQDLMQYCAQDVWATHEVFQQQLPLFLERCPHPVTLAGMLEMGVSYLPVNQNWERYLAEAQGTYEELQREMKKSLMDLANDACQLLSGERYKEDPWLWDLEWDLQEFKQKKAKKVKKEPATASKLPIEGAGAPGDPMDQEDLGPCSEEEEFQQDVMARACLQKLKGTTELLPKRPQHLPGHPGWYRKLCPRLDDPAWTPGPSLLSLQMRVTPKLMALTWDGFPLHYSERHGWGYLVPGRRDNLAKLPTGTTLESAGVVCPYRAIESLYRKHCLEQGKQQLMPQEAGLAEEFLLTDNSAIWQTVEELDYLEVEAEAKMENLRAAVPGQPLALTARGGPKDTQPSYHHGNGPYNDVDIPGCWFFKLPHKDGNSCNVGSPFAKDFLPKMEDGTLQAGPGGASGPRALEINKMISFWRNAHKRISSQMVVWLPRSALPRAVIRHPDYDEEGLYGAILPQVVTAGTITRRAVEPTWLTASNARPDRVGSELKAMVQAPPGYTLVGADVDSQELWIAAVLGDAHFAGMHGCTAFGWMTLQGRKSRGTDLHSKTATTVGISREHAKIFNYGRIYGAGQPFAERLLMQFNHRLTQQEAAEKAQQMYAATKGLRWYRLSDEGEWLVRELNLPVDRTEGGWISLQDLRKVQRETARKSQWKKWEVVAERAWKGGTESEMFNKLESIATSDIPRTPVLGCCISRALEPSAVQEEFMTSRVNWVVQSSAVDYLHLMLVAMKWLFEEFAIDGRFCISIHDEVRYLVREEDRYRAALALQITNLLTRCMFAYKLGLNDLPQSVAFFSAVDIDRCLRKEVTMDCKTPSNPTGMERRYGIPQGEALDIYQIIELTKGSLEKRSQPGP
Sequence (Q9UHN1 25-485 partner limits assumed): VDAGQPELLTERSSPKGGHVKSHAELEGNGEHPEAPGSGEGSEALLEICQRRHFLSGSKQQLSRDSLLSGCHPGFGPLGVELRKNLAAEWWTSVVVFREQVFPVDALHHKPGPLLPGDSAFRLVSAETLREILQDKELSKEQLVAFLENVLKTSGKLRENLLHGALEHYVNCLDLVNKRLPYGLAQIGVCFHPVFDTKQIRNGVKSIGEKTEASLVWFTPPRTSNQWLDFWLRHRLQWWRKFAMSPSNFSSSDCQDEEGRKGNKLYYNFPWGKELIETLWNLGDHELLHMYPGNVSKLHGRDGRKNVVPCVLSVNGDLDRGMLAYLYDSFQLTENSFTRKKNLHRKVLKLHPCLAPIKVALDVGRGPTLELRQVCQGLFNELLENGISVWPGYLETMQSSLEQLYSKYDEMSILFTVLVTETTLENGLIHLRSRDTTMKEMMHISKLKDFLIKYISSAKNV
ASSAY_PROTOCOL: Human DNA polymerase inhibition, gamma
Assay type: biochemical
ASSAY_CONTEXT: Pol γ; "activated" DNA; read-out: ID50 (the source's name)
pIC50: −log10 of the molar value.
ASSAY_READOUT: pIC50

[ask] Returns the measured pIC50 for the input compound. Input: `O=C(O)P(=O)(O)O`
[reply] < 4.00
